assay: Inhibition of Penicillium fellutanum exo-beta-D-galactofuranosidase by spectrophotometry
Record form. Attribute: pIC50. Fill in for each entry.
pIC50 here: minus log base 10 of the concentration, concentration in moles per litre.

Request: What value of pIC50 has been reported for the following compound? O=[N+]([O-])c1ccc(S[C@@H]2O[C@@H]([C@H](O)CO)[C@H](O)[C@H]2O)cc1
Response: 3.22

Request: What value of pIC50 has been reported for the following compound? O=C1O[C@@H]([C@H](O)CO)[C@H](O)[C@H]1O
Response: 4.70

Request: What value of pIC50 has been reported for the following compound? OC[C@@H](O)[C@@H]1O[C@@H](n2cc[nH]c2=S)[C@H](O)[C@H]1O
Response: 2.98

Request: What value of pIC50 has been reported for the following compound? Nc1ccc(S[C@@H]2O[C@@H]([C@H](O)CO)[C@H](O)[C@H]2O)cc1
Response: 4.10

Request: What value of pIC50 has been reported for the following compound? CO[C@H]1CNC(=S)N1[C@@H]1O[C@@H]([C@H](O)CO)[C@H](O)[C@H]1O
Response: 4.00
